# Subject Of Test: T1, biotinylated recombinant human IL-12Rβ2 (human, UniProt Q99665 24-622, random biotinylated)
# T1 construct: Recombinant protein produced in-house; also called hIL-12RB2; human IL-12RB2
# T1 sequence: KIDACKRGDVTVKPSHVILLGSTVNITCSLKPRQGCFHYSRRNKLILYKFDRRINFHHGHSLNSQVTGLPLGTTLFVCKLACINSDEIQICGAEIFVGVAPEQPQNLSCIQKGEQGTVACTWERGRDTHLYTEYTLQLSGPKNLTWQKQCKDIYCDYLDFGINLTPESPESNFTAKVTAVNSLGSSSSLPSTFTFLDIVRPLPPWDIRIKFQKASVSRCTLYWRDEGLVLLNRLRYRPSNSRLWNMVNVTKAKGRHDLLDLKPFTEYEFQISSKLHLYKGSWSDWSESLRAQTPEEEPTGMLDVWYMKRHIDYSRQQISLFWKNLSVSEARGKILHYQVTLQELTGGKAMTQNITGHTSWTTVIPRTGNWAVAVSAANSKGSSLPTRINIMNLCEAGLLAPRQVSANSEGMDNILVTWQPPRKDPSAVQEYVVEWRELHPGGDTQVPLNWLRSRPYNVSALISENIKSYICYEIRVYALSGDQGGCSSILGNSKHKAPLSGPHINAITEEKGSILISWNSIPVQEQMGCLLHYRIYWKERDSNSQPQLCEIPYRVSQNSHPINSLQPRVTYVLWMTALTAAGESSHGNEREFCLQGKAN
# Assay Details: BLI, P.E., off-rate ranking
Listing of recorded koff by entry.
Give your result in s⁻¹ as a bare value.

Worked examples follow.
Query: Need koff, item anti-IL-12Rβ2 VHH clone 3CRHS1 (clone ID 20412) (VHH, not shown: small tags and cut ends, periplasmic extract) VHH: QVQLQESGGGSVQPGGSLRLSCAASGFTFSTSGMHWFRQAPGKGLEWVSSIGIIVDSSYYASSVKGRFTISRDNAKNTLYLQMNSLKSEDTAVYYCSKDPTGSSRGQGTQVTVSS
Reply: 0.00283

Query: Proceed to anti-IL-12Rβ2 VHH clone 3CAH32 (clone ID 20357) (VHH, not shown: small tags and cut ends, periplasmic extract) VHH: QVQLQESGGGLVQPGGSLRLSCAASGSILRINLMGWYRQVPGKQRELVAEMSTGGSTTYVDSVKGRFTISRDNAKNTVYLQMNSLKPEDTAVYYCNAKAWQLGRLENDDWGQGTQVTVSS
Reply: 0.00419

Query: Proceed to anti-IL-12Rβ2 VHH clone 3CRH14 (clone ID 20374) (VHH, not shown: small tags and cut ends, periplasmic extract) VHH: QVQLQESGGGLVQPGGSLRLSCAASGFTFSTSGMHWFRQAPGKGLEWVSSIGIIVDSSYYADSVKGRFTISRDNAKNTLFLQMNSLKSEDTAVYYCSKDPTGSSRGQGTQVTVSS
Reply: 0.00328

Shifting focus to the binder that follows.
Query: Need koff, item anti-IL-12Rβ2 VHH clone 3CAHS102 (clone ID 20399) (VHH, not shown: small tags and cut ends, periplasmic extract) VHH: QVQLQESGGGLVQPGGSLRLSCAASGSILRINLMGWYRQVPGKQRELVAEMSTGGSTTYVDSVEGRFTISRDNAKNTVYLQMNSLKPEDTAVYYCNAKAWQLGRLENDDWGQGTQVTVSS
Reply: 0.00267
